Biological target: Inhibitor of nuclear factor kappa-B kinase subunit beta (Homo sapiens);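 further: values are mean percent inhibition of IKKB, part of the GSK PKIS screening data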
Conditions: at 0.1 µM

[
  {
    "molecule": "COc1ccc(-c2ccncc2)cc1C(N)=O",
    "inhibition (%)": 4.74
  },
  {
    "molecule": "Nc1ncnc2occ(-c3ccc(NC(=O)Nc4cccc(C(F)(F)F)c4)cc3)c12",
    "inhibition (%)": 6.2
  },
  {
    "molecule": "CC1=C(C(=O)Nc2ccc3[nH]ncc3c2)C(c2ccc(Cl)c(Cl)c2)CC(=O)N1 (configuration not stated)",
    "inhibition (%)": 3.16
  },
  {
    "molecule": "CS(=O)(=O)CCN(CC#N)Cc1ccc(-c2ccc3ncnc(Nc4ccc(OCc5cccc(F)c5)c(Cl)c4)c3c2)o1",
    "inhibition (%)": 3.6
  },
  {
    "molecule": "CC(C)=Cc1cccc2c1/C(=N/Nc1ccc(S(N)(=O)=O)cc1)C(=O)N2",
    "inhibition (%)": 1.01
  },
  {
    "molecule": "CCc1cccc(NC(=O)Nc2ccc(Oc3ccc4nc(NC(=O)OC)[nH]c4c3)cc2)c1",
    "inhibition (%)": 3.09
  },
  {
    "molecule": "COc1cc2ncn(-c3cc(OCc4ccccc4Cl)c(C(N)=O)s3)c2cc1OC",
    "inhibition (%)": 1.96
  },
  {
    "molecule": "Fc1cccc(COc2ccc(Nc3ncnc4cc(-c5ccc[nH]5)sc34)cc2Cl)c1",
    "inhibition (%)": 2.5
  },
  {
    "molecule": "NS(=O)(=O)c1ccc(N/N=C2\\C(=O)Nc3ccc(C(=O)NCCc4c[nH]cn4)cc32)cc1",
    "inhibition (%)": 4.11
  },
  {
    "molecule": "COC(=O)Nc1nc2cc(Oc3ccc(NC(=O)Nc4cccc(C(=O)O)c4)cc3)ccc2[nH]1",
    "inhibition (%)": 1.26
  },
  {
    "molecule": "Cc1cc(O)cc(C)c1/C=C/c1cncc(-c2nn[nH]n2)c1",
    "inhibition (%)": 5.96
  },
  {
    "molecule": "N#Cc1c(NC(=O)c2cccc3ccccc23)sc2c1CCCC2",
    "inhibition (%)": 3.31
  },
  {
    "molecule": "CN(C)c1cc2c(Nc3ccc4nc(Cc5ccccc5)[nH]c4c3)ncnc2cn1",
    "inhibition (%)": 7.48
  },
  {
    "molecule": "COc1cc(C)c(NC(=O)CN(C)C)cc1Nc1nc(Nc2cccc(F)c2C(N)=O)c2cc[nH]c2n1",
    "inhibition (%)": 0.16
  },
  {
    "molecule": "COc1ccc(COc2ccc(Cc3cnc(N)nc3N)cc2OC)cc1",
    "inhibition (%)": -1.1
  },
  {
    "molecule": "CCn1c(-c2nonc2N)nc2cncc(C(=O)N3CC[C@H](N)C3)c21",
    "inhibition (%)": 7.24
  },
  {
    "molecule": "CCN1CCC(CC(=O)Nc2n[nH]c3nc(-c4cccs4)c(Br)cc23)CC1",
    "inhibition (%)": -1.36
  },
  {
    "molecule": "CCn1c(-c2nonc2N)nc2c(C#CC(C)(C)O)nc(CN3CCCC3)cc21",
    "inhibition (%)": -1.14
  },
  {
    "molecule": "Cc1cccc(-c2n[nH]cc2-c2ccc3ncccc3n2)n1",
    "inhibition (%)": 0.87
  },
  {
    "molecule": "[O-][S+]1CCN(Cc2ccc(-c3ccc4ncnc(Nc5ccc(OCc6ccccc6)c(F)c5)c4c3)o2)CC1",
    "inhibition (%)": 4.51
  },
  {
    "molecule": "COc1cccc(-n2ncc3c(N/N=C/c4cccc(F)c4)ncnc32)c1",
    "inhibition (%)": 2.27
  },
  {
    "molecule": "NC(=O)c1ccc(-c2nc(-c3ccccn3)c(-c3ccc4c(c3)OCO4)[nH]2)cc1",
    "inhibition (%)": 3.19
  },
  {
    "molecule": "CCn1c(-c2nonc2N)nc2cncc(C(=O)N3CCNCC3)c21",
    "inhibition (%)": 6.46
  },
  {
    "molecule": "CS(=O)(=O)CCNCc1nc(-c2ccc3ncnc(Nc4ccc(F)c(Cl)c4)c3c2)cs1",
    "inhibition (%)": -0.32
  },
  {
    "molecule": "CS(=O)(=O)CCNCc1ccc(-c2ccc3ncnc(Nc4ccc(OCc5ccccc5)c(Cl)c4)c3c2)o1",
    "inhibition (%)": -1.73
  },
  {
    "molecule": "COc1cc2ncn(-c3cc(OCc4ccccc4C(F)(F)F)c(C(N)=O)s3)c2cc1OC",
    "inhibition (%)": 5.69
  },
  {
    "molecule": "Cc1ccc(NC(=O)c2ccnc(N3CCCC3)c2)cc1-c1ccc(C(=O)NCC2CC2)cc1",
    "inhibition (%)": 9.14
  },
  {
    "molecule": "COc1cc2c(cc1Nc1nc(N3CCc4ccccc43)c3cc[nH]c3n1)N(C(=O)CN(C)C)CC2",
    "inhibition (%)": 4.25
  },
  {
    "molecule": "COc1ccc(-c2coc3ncnc(N)c23)cc1",
    "inhibition (%)": 10.3
  },
  {
    "molecule": "O=C(Nc1n[nH]c2nc(-c3ccco3)c(Br)cc12)C1CC1",
    "inhibition (%)": 1.61
  },
  {
    "molecule": "Cc1ccc(C(=O)NC2CCCCC2)cc1-c1ccc(C(=O)NCC2CC2)cc1",
    "inhibition (%)": 3.29
  },
  {
    "molecule": "Cc1nn(C)c2cc(N(C)c3ccnc(Nc4cccc(S(N)(=O)=O)c4)n3)ccc12",
    "inhibition (%)": 4.27
  },
  {
    "molecule": "CN1CCC(C(=O)Nc2n[nH]c3nnc(-c4ccccc4)cc23)CC1",
    "inhibition (%)": 11.4
  },
  {
    "molecule": "O=C1Nc2ccc(C(=O)c3ccco3)cc2C1=Cc1cc(Cl)c(O)c(Cl)c1",
    "inhibition (%)": 5.21
  },
  {
    "molecule": "COc1ccc2cc(-c3c(-c4ccncc4)nc(-c4ccc([S+](C)[O-])cc4)n3C)ccc2c1 (configuration not stated)",
    "inhibition (%)": 3.95
  },
  {
    "molecule": "CC1=C(C(=O)Nc2ccc3[nH]ncc3c2)C(c2ccc(F)cc2)NC(=O)N1 (configuration not stated)",
    "inhibition (%)": 1.68
  },
  {
    "molecule": "COc1ccc(-c2nn3ncccc3c2-c2ccnc(Nc3ccc(Cl)c(C(F)(F)F)c3)n2)cc1",
    "inhibition (%)": 5.25
  },
  {
    "molecule": "CCn1c(-c2nonc2N)nc2c(N3CCCC3)nccc21",
    "inhibition (%)": 0.45
  },
  {
    "molecule": "O=C1NC(=O)C(N2CCc3ccccc32)=C1c1ccc(Cl)cc1",
    "inhibition (%)": 5.07
  },
  {
    "molecule": "COc1cc(C=NNc2ncnc3c2cnn3-c2ccccc2)ccc1O",
    "inhibition (%)": 3.33
  },
  {
    "molecule": "CCn1c(-c2nonc2N)nc2c(C#CC(C)(C)O)nc(OC[C@@H](N)c3ccccc3)cc21",
    "inhibition (%)": -2.58
  },
  {
    "molecule": "CCn1c(-c2nonc2N)nc2ccncc21",
    "inhibition (%)": 5.3
  }
]
